For each record, write down the corresponding log10 of KM.
B1: glmS ribozyme (parent)
chain: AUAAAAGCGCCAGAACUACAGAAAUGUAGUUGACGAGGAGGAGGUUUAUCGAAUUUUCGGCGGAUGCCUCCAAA

variants of: B1; assay: KM; higher = weaker cofactor use; RNA array; settings: with glucosamine-6-phosphate
Heads up: the numbers are on a log10 scale; they represent KM in µM.

These solved cases illustrate the format of a correct answer.
>  <variant identifier>
G41U A48U

>  <log10 of KM>
3.40

$$$$
>  <variant identifier>
U31G U55G U56C

>  <log10 of KM>
3.65

$$$$
>  <variant identifier>
U55A C58A

>  <log10 of KM>
3.66

$$$$

I would be grateful if you could provide log10 of KM for each of the following entries.
1. G29C A33U
2. C16A G66U
3. G66C C70U
4. U56G A64C
5. C16G C67U
6. U30A

Completion:
1. 2.99
2. 3.93
3. 3.16
4. 3.18
5. 2.87
6. 3.41

I would be grateful if you could provide log10 of KM for each of the following entries.
1. A12U A33C
2. G32A A53G

Completion:
1. 3.89
2. 3.30

I would be grateful if you could provide log10 of KM for each of the following entries.
1. C11A A12G
2. A39C U55A
3. G51U U55G
4. A14C G40C

Completion:
1: 3.48; 2: 3.45; 3: 1.88; 4: 3.56
